Data provenance: ChEMBL document CHEMBL1157539

System: Plasmodium falciparum
Procedure Details: GSK_TCMDC: Inhibition of Plasmodium falciparum 3D7 in whole red blood cells, using parasite LDH activity as an index of growth. Test compounds present at 2uM
Assay type: functional
Reported Metric: Inhibition (%)

• Cl.N=c1c2c(n(Cc3ccccc3)c3c1CCC3)CCCC2 = 86
• Cc1cc(C(F)(F)F)n2nc(C(=O)N(C)Cc3cncn3Cc3ccc(F)cc3)cc2n1 = 100
• Cl.O=c1cc(NCCCNCc2cc3c(Cl)cccc3s2)[nH]c2ccccc12 = 100
• COc1ccc(C2CC(c3cccs3)=NN2C(=O)c2ccccc2)cc1OC (stereo not given) = 99
• O=C(Nc1cccc(-c2csc(-c3ccccc3)n2)c1)c1cccs1 = 89
• CC(CN1CCN(C)CC1)C(=O)Nc1ccc(-c2cccc(-c3nc4ccccc4[nH]3)c2)cc1 (stereo not given) = 94
• Cc1ccc(NCC(=O)Nc2ccc(F)c(Cl)c2)cc1S(=O)(=O)N1CCOCC1 = 98
• CC(C)Sc1nc2c(c(=O)n1CCc1ccccc1)C1(CCCCC1)Cc1ccccc1-2 = 92
• CCCCN(CCCC)CCCN(CCCN(CCCC)CCCC)c1cc(C)nc(Nc2ccc3cc(Br)ccc3c2)n1.Cl = 100
• O=[N+]([O-])c1ccc(C=NNc2nc(Nc3ccccc3)nc(Nc3ccccc3)n2)o1 = 94
• Fc1ccc2[nH]c(-c3ccc(-c4ccc(CN5CCCCC5)cc4)cc3)nc2c1.O=C(O)C(F)(F)F = 98
• COc1cc(Nc2nccn3c(-c4ccsc4)cnc23)cc(OC)c1OC = 93
• COc1ccc(C=NN=c2cc(C)[nH]c3ccccc23)c(OC)c1 = 100
• COc1ccc2nccc(N3CCC(CCNCc4cc5c(cn4)OCCO5)CC3)c2c1.Cl = 100
• CC(=O)Nc1ccc(S(=O)(=O)Nc2ccc(Nc3nc(C)cc(N4CCCCC4)n3)cc2)cc1 = 89
• Cc1cccc(CNc2nc(C)cc(N[C@@H](Cc3ccccc3)C(=O)NC3CCCC3)n2)c1.O=C(O)C(F)(F)F = 100
• COc1ccc(CN2CCC(CNCCc3c(Cl)cccc3Cl)CC2)cc1.O=C(O)C(F)(F)F = 98
• CN(C)c1cccc2c1nc(-c1ccco1)n2CC1CCCN1.O=C(O)C(F)(F)F (stereo not given) = 86
• FC(F)(F)c1ccc2[nH]c(-c3ccc(-c4cccc(CN5CCCCC5)c4)cc3)nc2c1.O=C(O)C(F)(F)F = 100
• COc1ccc(Nc2nccc(-c3ccc4ccnc(NCCCCN)c4c3)n2)cc1 = 95

* * *

Test system: Plasmodium falciparum
Procedure Details: GSK_TCMDC: Inhibition of Plasmodium falciparum Dd2 in whole red blood cells, using parasite LDH activity as an index of growth. Test compounds present at 2uM
Format: functional
Reported Metric: Inhibition

* O=C(Nc1cccc(-c2ccc(-c3nc4cc(F)ccc4[nH]3)cc2)c1)c1csnn1 | 31%
* O=C(O)C(F)(F)F.O=S(=O)(NCCN1CCCC1)c1ccc(-c2cccc(CNCCc3cccs3)c2)s1 | 44%
* COc1ccc(C2C(C(=O)Nc3cc(Cl)c(OC)cc3OC)c3ccccc3C(=O)N2C)cc1 (centres undefined) | 98%
* c1ccc(COc2ccc(Nc3ncnc4cnc(-c5ccc(CNc6cccnc6)o5)cc34)cc2)cc1 | 19%
* CC1CCCCN1CCCNC(=O)c1cccc(-c2cc3cc(Cl)c(Cl)cc3[nH]2)c1.O=C(O)C(F)(F)F (centres undefined) | 7%
* O=S(=O)(c1ccccc1OC(F)(F)F)C1CC2CCC(C1)N2S(=O)(=O)c1cccc(C(F)(F)F)c1 (centres undefined) | 99%
* Cc1cccc2nc(-c3cccc(-c4ccc(NC(=O)NC5CC5c5ccccc5)cc4)c3)[nH]c12 (centres undefined) | 49%
* O=C(O)C(F)(F)F.O=[N+]([O-])c1cccc(CNCC2CCN(CCc3ccccc3)CC2)c1 | 11%
* O=C(N1CCN(c2ccc(C(F)(F)F)cc2[N+](=O)[O-])CC1)C(Cl)(Cl)Cl | 99%

* * *

Each record here notes measured Inhibition.
Test system: Plasmodium falciparum
Procedure Details: GSK_TCMDC: Inhibition of Plasmodium falciparum Dd2 in whole red blood cells, using parasite LDH activity as an index of growth. Test compounds present at 2uM
Type: functional
Reported Metric: Inhibition (%)

• CCCn1c(Sc2ccc(C#N)c([N+](=O)[O-])c2)nnc1-c1ccc(Cl)cc1 = 95
• Cc1c(Br)cc2nc(-c3ccc(C(=O)NC4CCN(Cc5ccccc5)CC4)cc3)[nH]c2c1C = 98
• COc1cc(NCC(CN)Cc2ccc3c(c2)OCO3)nc2ccccc12.Cl (centres undefined) = 6
• CCCN1CCN(CCNC(=O)c2cccc(Nc3nccc(Nc4ccc(Oc5ccccc5)cc4)n3)c2)CC1 = 96
• O=C(O)C(F)(F)F.Oc1ccc(CCNc2nc(NCc3ccccc3-c3ccc(C(F)(F)F)cc3)nc(N3CCCNCC3)n2)cc1 = 2
• COc1ccc(-c2cnc(NCc3ccccc3)nc2)cc1CNC1CCN(C)CC1.O=C(O)C(F)(F)F = 64
• c1cc(CNC2Cc3ccc(-c4cccs4)cc3C2)cc(-n2ccnc2)c1 (centres undefined) = 63
• COc1ccc(OC(C)CNC(=O)c2cc([N+](=O)[O-])ccc2-c2ccc(OC)cc2)cc1 (centres undefined) = 44
• CN1CCCN(Cc2ccc(-c3ccc(NC(=O)c4ccc(C#N)cc4)cc3)cc2)CC1.O=C(O)C(F)(F)F = 28

* * *

System: Plasmodium falciparum
Procedure Details: GSK_TCMDC: Inhibition of Plasmodium falciparum Dd2 in whole red blood cells, using parasite LDH activity as an index of growth. Test compounds present at 2uM
Assay type: functional
Criterion: Inhibition strictly under 90%. Met: yes. Not met: no.

• Cn1nccc1C(=O)NCCNCc1cccc(-c2cccc(-c3nc4cc(F)ccc4[nH]3)c2)c1.O=C(O)C(F)(F)F = yes
• CCNc1cc(C(=O)N[C@@H](Cc2ccccc2Cl)[C@H](O)CNC(C)CCCC(C)C)cc(N2CCCCS2(=O)=O)c1.Cl (stereo not given in full) = yes
• COc1ccc(S(=O)(=O)N(CC(=O)NN=C(C)c2cccs2)c2cc(C)cc(C)c2)cc1OC = yes
• CN(C)CC(=O)Nc1ccc(-c2ccc3ccnc(N)c3c2)cc1.O=C(O)C(F)(F)F = no
• C=CCOc1ccc(C2C(C(=O)OC)=C(C)NC3=C2C(=O)c2ccccc23)cc1OC (stereo not given) = yes
• COc1ccc(CNCc2ccsc2)cc1-c1ccc(S(=O)(=O)NCCN2CCCC2)c(C)c1.O=C(O)C(F)(F)F = yes
• Cc1cnc(C[S+]([O-])c2nc3cc(C(F)(F)F)ccc3[nH]2)cc1OCc1ccccc1 (stereo not given) = yes
• CCCCCCCCN1CCCN(C(=O)c2cccc(NC(=O)Nc3ccc4ccccc4c3)c2)CC1.O=C(O)C(F)(F)F = yes
• CC1(C)CNCc2cc(NC(=O)/C=C/c3ccc(Cl)cc3)ccc21.Cl = yes
• COc1ccc2nccc(N3CCC(NCc4ccc5c(n4)NC(=O)CS5)CC3)c2n1 = yes
• Cc1c(-c2ccc3c(c2)C(NCCCN2CCCCC2)CC3)cnc(N)c1C.Cl (stereo not given) = yes
• CC(Cc1ccc(NC(=O)c2ccc(CC(C)NCc3ccc(Cl)cc3)cc2)cc1)NCCc1cccc(Cl)c1 (stereo not given) = yes
• CN1CCN(CCCN(Cc2cccc(-c3ccc(CNCCc4ccccc4)cc3)c2)C(=O)c2cccs2)CC1.O=C(O)C(F)(F)F = no
• CCN(CC)/C(=N/C(=N)Nc1ccc(Cl)cc1)NCCCCCCCCN/C(=N\C(=N)Nc1ccc(Cl)cc1)N(CC)CC = no
• CN1CCN(c2ccc(CNc3ccc4ncc(-c5ccc(OC(F)(F)F)cc5)n4n3)cc2)CC1 = yes
• Cc1ccn2c(N(Cc3ccccc3)C(=O)c3ccc(Cl)c(Cl)c3)c(-c3ccccc3)nc2c1 = yes
• FC(F)(F)Oc1cccc(CNc2noc(-c3sccc3Br)n2)c1 = no
• O=C(NCCNc1ccnc(NCc2ccc(F)cc2)n1)c1cc2ccccc2s1 = yes
• CNCCNCc1cccc(-c2ccc(-c3nc4cc(C(F)(F)F)ccc4[nH]3)s2)c1.O=C(O)C(F)(F)F = yes
• ON=C1CCc2cc(-c3cc(-c4ccc(OC5CCNCC5)cc4)oc3-c3ccncc3)ccc21 = no
• COc1ccc(-c2c3c(=O)n(C)c(=O)n(C)c3c3nnc4ccccc4n23)cc1 = yes
• C=C[C@]1(C)C[C@@H](OC(=O)NC(=O)CCCS(=O)(=O)c2nnc(C)s2)[C@]2(C)[C@H](C)CC[C@]3(CCC(=O)[C@H]32)[C@@H](C)[C@@H]1O = no
• O=C(O)C(F)(F)F.O=S(=O)(NCCN1CCCC1)c1ccc(-c2cccc(CNCc3ccsc3)c2)s1 = yes
• O=C(Nc1ccc(Br)cc1)Nc1ccc(Cn2ncc(N3CCCNCC3)c(Cl)c2=O)cc1.O=C(O)C(F)(F)F = yes
• O=C(O)C(F)(F)F.c1cc(CN2CCN(c3ccncc3)CC2)cc(-c2cccc(-c3nc4ccccc4[nH]3)c2)c1 = no
• Br.CC1(C)NC(N)=NC(=N)N1OCCOc1ccc2ccccc2c1 = no
• Cn1c(NC(=O)C2CCC(CNC(=O)c3ccc(O)c(-c4ccc(Cl)c(Cl)c4)c3)CC2)nc2ccccc21 (stereo not given) = no
• CN1CCCC(CN2CCN(Cc3ccc(-c4ccc(-c5nc6cc(F)ccc6[nH]5)cc4)cc3)CC2)C1.O=C(O)C(F)(F)F (stereo not given) = no
• O=C(Nc1ccc(C(F)(F)F)cc1)c1cc(Br)cnc1NCCCn1ccnc1 = no
• COc1cccc(NC(=O)[C@H](C(C)C)n2c(=O)[nH]c3ccccc3c2=O)c1 = no
• Cc1ccc(NC(=O)Nc2ccc(S(=O)(=O)c3ccc(NC(=O)Nc4ccc(C)c(Cl)c4)cc3)cc2)cc1Cl = yes
• COc1ccc2nc(SC(C)C(=O)c3c[nH]c4ccccc34)[nH]c2c1 (stereo not given) = no
